These measurements were taken from paper PMC9266353.

Tested on: 4T1 cell line
run-description: Cell proliferation assay (CCK8), 4T1
Format: cell-based
run-parameters: Mus musculus, 4T1; CCK8, 48 h; read-out: IC50 against 4T1 cell line
metric-name: IC50

* COc1ccc2[nH]c(SCc3nc4cc(F)ccc4c(=O)[nH]3)nc2n1 | 2990 nM

###

tgt: human soluble ENPP1 (Homo sapiens, UniProt P22413)
Sequence (P22413 103-925 limits assumed): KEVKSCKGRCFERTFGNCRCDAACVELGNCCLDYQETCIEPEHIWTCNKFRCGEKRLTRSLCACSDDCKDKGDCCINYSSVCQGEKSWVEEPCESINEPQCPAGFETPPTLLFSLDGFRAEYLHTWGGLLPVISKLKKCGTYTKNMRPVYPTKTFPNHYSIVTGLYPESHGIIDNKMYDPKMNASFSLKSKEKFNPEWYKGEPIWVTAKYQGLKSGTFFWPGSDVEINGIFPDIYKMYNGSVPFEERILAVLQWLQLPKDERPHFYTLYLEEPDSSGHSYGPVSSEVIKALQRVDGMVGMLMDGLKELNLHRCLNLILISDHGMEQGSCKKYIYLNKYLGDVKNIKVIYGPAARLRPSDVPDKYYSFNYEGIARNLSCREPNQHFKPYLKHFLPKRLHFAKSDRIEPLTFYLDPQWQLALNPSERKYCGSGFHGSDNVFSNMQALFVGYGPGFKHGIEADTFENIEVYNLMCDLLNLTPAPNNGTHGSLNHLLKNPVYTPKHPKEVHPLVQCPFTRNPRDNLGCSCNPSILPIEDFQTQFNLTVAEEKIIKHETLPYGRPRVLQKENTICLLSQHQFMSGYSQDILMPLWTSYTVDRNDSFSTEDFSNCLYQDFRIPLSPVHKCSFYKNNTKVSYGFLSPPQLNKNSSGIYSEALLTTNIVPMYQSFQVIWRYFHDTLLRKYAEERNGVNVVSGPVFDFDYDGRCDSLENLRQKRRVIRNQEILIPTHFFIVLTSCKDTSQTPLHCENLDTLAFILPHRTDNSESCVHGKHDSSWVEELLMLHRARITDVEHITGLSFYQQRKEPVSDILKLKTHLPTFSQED
metric-name: IC50 (nM)

* COC(=O)c1ccc2c(=O)[nH]c(CSc3nc4nc(OC)ccc4[nH]3)nc2c1 | 694
